Reference source for all entries: patent US7101878B1

Target: human GnRH receptor (Homo sapiens, UniProt P30968)
Construct: expressed in transfected cells; host or cells: HEK 293 (hGnRH-R/293, from Dr. Stuart Sealfon)
Sequence (P30968 1-328): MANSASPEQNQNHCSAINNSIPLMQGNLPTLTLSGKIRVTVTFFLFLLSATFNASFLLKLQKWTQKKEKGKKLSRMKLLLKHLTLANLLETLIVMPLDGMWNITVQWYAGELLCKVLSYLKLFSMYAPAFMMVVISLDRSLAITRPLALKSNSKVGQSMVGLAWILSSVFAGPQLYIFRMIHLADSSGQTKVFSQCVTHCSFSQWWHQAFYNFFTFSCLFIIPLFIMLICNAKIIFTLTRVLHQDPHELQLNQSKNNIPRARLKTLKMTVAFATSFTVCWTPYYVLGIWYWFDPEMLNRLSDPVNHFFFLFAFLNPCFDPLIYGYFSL
Experiment: Radioligand binding, 125I-GnRH-A displacement, membranes of HEK 293 cells with human GnRH receptor
Settings: 1 h, substrate remaining; 1 uM compound; closer to zero = closer to 100% inhibition; read-out: S%R 1 uM hGnRHR
Strictly below 20% in remaining activity at 1 µM: yes. Otherwise: no.

Cc1cc2c(cc1Cc1ccc(C(=O)NC3CC3)o1)C(C)(C)CCC2(C)C [Compound 431] ... no
Cc1ccccc1CNC(=O)c1ccc(Cc2cc3c(cc2C)C(C)(C)CCC3(C)C)o1 [Compound 413] ... yes
Cc1cc2c(cc1Cc1ccc(C(=O)NCc3ccc(F)cc3)o1)C(C)(C)CCC2(C)C [Compound 426] ... no

### Prompt Does Cc1cc2c(cc1Cc1ccc(C(=O)NCc3cccs3)o1)C(C)(C)CCC2(C)C [Compound 415] have remaining activity at 1 µM strictly under 20%?
### Response yes

### Prompt Can you check Cc1cc2c(cc1Cc1ccc(C(=O)NCc3ccc(Br)cc3)o1)C(C)(C)CCC2(C)C [Compound 453] next?
### Response no

### Prompt Then this molecule: COc1ccccc1CNC(=O)c1ccc(Cc2cc3c(cc2C)C(C)(C)CCC3(C)C)o1 [Compound 404]
### Response yes

====

Reported remaining activity at 1 µM values follow for various compounds
Target: human GnRH receptor (Homo sapiens)
Construct: expressed in transfected cells; host or cells: HEK 293 (hGnRH-R/293, from Dr. Stuart Sealfon)
Sequence (P30968 1-328): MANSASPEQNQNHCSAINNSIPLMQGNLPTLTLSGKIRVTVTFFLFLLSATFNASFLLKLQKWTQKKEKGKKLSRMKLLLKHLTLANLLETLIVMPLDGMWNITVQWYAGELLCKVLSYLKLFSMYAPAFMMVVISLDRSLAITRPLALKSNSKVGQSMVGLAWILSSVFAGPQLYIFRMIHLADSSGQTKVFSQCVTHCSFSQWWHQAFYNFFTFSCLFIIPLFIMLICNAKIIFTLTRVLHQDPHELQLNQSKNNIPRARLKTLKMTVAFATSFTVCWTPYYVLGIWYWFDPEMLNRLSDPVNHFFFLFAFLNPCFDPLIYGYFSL
Experiment: Radioligand binding, 125I-GnRH-A displacement, membranes of HEK 293 cells with human GnRH receptor
Conditions: 1 h, substrate remaining; 1 uM compound; closer to zero = closer to 100% inhibition; read-out: S%R 1 uM hGnRHR
Field: value (include unit after the number)

Cc1cc2c(cc1Cc1ccc(C(=O)NCc3ccc(Cl)cc3Cl)o1)C(C)(C)CCC2(C)C [Compound 425] ... 42%
Cc1cc2c(cc1Cc1ccc(C(=O)NCc3cccnc3)o1)C(C)(C)CCC2(C)C [Compound 400] ... 28%
Cc1cc2c(cc1Cc1ccc(C(=O)NCCc3ccccc3)o1)C(C)(C)CCC2(C)C [Compound 405] ... 40%
Cc1cc2c(cc1Cc1ccc(C(=O)NCC(O)c3ccccc3)o1)C(C)(C)CCC2(C)C (stereo not shown) [Compound 444] ... 32%
Cc1cc2c(cc1Cc1ccc(C(=O)NCCCN3CCCC3=O)o1)C(C)(C)CCC2(C)C [Compound 424] ... 31%

### Prompt Please report the recorded remaining activity at 1 µM for Cc1cc2c(cc1Cc1ccc(C(=O)NC(C)c3ccc([N+](=O)[O-])cc3)o1)C(C)(C)CCC2(C)C (stereo not shown) [Compound 455] .
### Response 58%

### Prompt Now the same for Cc1cc2c(cc1Cc1ccc(C(=O)NCCOCCO)o1)C(C)(C)CCC2(C)C [Compound 401]
### Response 32%

### Prompt Quick one: COc1cccc(CCNC(=O)c2ccc(Cc3cc4c(cc3C)C(C)(C)CCC4(C)C)o2)c1OC [Compound 429]
### Response 40%

### Prompt Param item: Cc1cc2c(cc1Cc1ccc(C(=O)NCc3ccccc3F)o1)C(C)(C)CCC2(C)C [Compound 408]
### Response 16%

### Prompt Can you check Cc1cc2c(cc1Cc1ccc(C(=O)NC(C)c3ccccc3)o1)C(C)(C)CCC2(C)C (stereo not shown) [Compound 428] next?
### Response 46%

### Prompt Can you handle COc1cccc(CNC(=O)c2ccc(Cc3cc4c(cc3C)C(C)(C)CCC4(C)C)o2)c1 [Compound 439] next?
### Response 23%

### Prompt Would you kindly repeat that for Cc1cc2c(cc1Cc1ccc(C(=O)NC(C#N)c3ccccc3)o1)C(C)(C)CCC2(C)C (stereo not shown) [Compound 452] ?
### Response 55%

### Prompt COc1ccc(CNC(=O)c2ccc(Cc3cc4c(cc3C)C(C)(C)CCC4(C)C)o2)cc1 [Compound 414] , same question.
### Response 10%
